- target.entity: T1, human GIP receptor (hGIPr) (Homo sapiens, UniProt P48546)
- T1 construct: expressed in transfected cells
- T1 sequence (P48546 22-466): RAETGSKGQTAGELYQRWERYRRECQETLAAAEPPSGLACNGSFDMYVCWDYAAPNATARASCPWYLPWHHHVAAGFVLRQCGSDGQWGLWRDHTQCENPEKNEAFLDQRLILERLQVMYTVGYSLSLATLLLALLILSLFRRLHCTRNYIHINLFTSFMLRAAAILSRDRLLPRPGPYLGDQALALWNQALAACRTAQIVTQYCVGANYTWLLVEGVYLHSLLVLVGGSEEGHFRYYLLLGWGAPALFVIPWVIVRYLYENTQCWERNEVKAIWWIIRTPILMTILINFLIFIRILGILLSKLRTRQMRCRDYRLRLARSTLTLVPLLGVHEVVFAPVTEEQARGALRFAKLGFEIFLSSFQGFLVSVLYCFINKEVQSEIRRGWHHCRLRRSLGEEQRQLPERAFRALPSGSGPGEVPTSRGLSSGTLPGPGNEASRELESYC
- assay.remarks: BSA-cAMP assay, cells expressing human GIP receptor
- Format: cell-based
- condition: BSA-cAMP assay; batch 1 unless a batch is given; read-out: cAMP activity hGIPr (EC50)
pEC50: −log10 of the molar value.
Measured pEC50, listed per entry.

{"molecule": "IP171: Fc fusion, IgG1-TM, SEQ ID NO:142; agonist peptide YSEGTFTSDVSSYMERQAISEFIAWLLAG (protein, also: Fc fusion, IgG1-TM, agonist peptide YSEGTFTSDVSSYMERQAISEFIAWLLAG) YSEGTFTSDVSSYMERQAISEFIAWLLAGAAAGGSGSTASSGSGSATGGGGAATHTCPPCPAPEF", "relational.operator": "=", "pEC50": 9.41}
{"molecule": "IP230 (protein, /note=“Description of Artificial Sequence Synthetic Peptide-linker-hinge polypeptide”) HGEGTFTSDVSSYLEGQAAKEFIAWLVKGAAAGGSGSTASSGSGSATGGGGAATHTCPPCPAPEF", "relational.operator": "<", "pEC50": 4.82}
{"molecule": "IP146 (protein, /note=“Description of Artificial Sequence Synthetic Peptide-linker-hinge polypeptide”) HGEGTFTSDVSSYLEGQAAKEFIAWLVKGAAAGGSGSTASSGSGSATGGGGAACPPCPAPEF", "relational.operator": "=", "pEC50": 7.08}
{"molecule": "IP170 (protein, /note=“Description of Artificial Sequence Synthetic Peptide-linker-hinge polypeptide”) YSEGTFTSDVSSYMERQAIDEFIAWLLKGGAAAGGSGSTASSGSGSATGGGGAATHTCPPCPAPEF", "relational.operator": "=", "pEC50": 10.10}
